Assay: Apparent half life of the compound assessed as atropisomer interconversion by HPLC analysis
Format: physicochemical
Details: read-out: t1/2(app)
measured-property: half-life (h)
Express it in h; write the number only.

Data request: Please indicate half-life recorded for `Cc1cc(OCc2cnc(Oc3ccc(N(C(=O)[C@H]4CC[C@H](C)CC4)C(C)C)c(C(=O)O)c3)c(C(F)(F)F)c2)c2ccccc2n1`
Data returned: 1.15

----------
Experiment: Inhibition of HIV1 NL-4.3 matrix (1 to 132) expressed in BL21(DE3) cells using [PI(4,5)P2]2 as substrate after 30 mins by fluorescence polarization assay
Parameters: species or system Human immunodeficiency virus 1
measured-property: IC50

Data request: Please indicate IC50 recorded for `CN(c1ccc(Oc2ccccc2C(F)(F)F)cc1C(=O)O)C(=O)[C@H]1CC[C@H](C)CC1`
Data returned: > 100 µM

Data request: Please indicate IC50 recorded for `C[C@H]1CC[C@H](C(=O)Nc2ccc(Oc3ccccc3C(F)(F)F)cc2C(=O)O)CC1`
Data returned: > 95 µM

Data request: Please indicate IC50 recorded for `CC(C)N(c1ccc(Oc2ccccc2C(F)(F)F)cc1C(=O)O)C(=O)[C@H]1CC[C@H](C)CC1`
Data returned: > 175 µM

Data request: Please indicate IC50 recorded for `COc1ccc(C(=O)Nc2ccc(Oc3ccc(N(C(=O)[C@H]4CC[C@H](C)CC4)C(C)C)c(C(=O)O)c3)cc2)cc1`
Data returned: 3.4 µM

Values compiled from ChEMBL document CHEMBL3120129.
